Data origin: PubChem BioAssay (NCI)

# Tested on: A498 renal
# Protocol details: NCI-60 one-dose screen, 48 h (100 = growth as untreated, 0 = no growth, -100 = all killed)
# Assay conditions: 10 µM unless noted
This is part of a sample that, as a whole, favours compounds with a hit. Of some 83,000 tested, about 20% had one in any assay.

Molecule | growth [%]
CCNC(=O)c1[nH]cc(-c2ccc(OC)cc2)c1-c1cc(OC)cc(OC)c1 | 91.1
CN1CCN(c2ccc3nc(-c4cc(C(C)(C)C)c(O)c(C(C)(C)C)c4)[nH]c3c2)CC1 | 90.5
CCN1C(=O)N(CC)C2NC(SC)=NC21 (centres undefined) | 90.2
CC[N+](CC)(CCCC(C)[N+]1(Cc2ccccc2)C(C)=CC=C1C)Cc1ccccc1 (centres undefined) | 87.5
